assayed target: IAG-nucleoside hydrolase (Trypanosoma brucei, UniProt Q57ZL6)
Sequence (Q57ZL6 entry or part of it): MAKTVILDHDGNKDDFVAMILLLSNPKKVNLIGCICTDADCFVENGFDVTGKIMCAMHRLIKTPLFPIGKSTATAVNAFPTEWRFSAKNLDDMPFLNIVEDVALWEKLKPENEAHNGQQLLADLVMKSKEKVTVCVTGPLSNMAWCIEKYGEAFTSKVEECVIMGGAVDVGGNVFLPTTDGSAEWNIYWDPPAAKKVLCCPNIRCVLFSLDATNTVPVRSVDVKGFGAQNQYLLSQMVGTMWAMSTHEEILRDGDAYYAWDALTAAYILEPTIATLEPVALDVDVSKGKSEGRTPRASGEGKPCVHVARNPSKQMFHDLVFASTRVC
assay details: Inhibition of IAG-nucleoside hydrolase, initial rates
observed property: Km /KI IAG-nucleoside hydrolase
Please respond with just the number, no unit label.

Task: // returns reported Km /KI IAG-nucleoside hydrolase for input OC[C@H]1N[C@@H](c2ccc(Br)cc2)[C@H](O)[C@@H]1O
Result: 0.16

Task: How about this compound: OC[C@H]1N[C@@H](c2ccc(O)cc2)[C@H](O)[C@@H]1O
Result: 0.51

Task: How about this compound: OC[C@H]1NC[C@H](O)[C@@H]1O
Result: 0.41

Task: How about this compound: Nc1ccc([C@@H]2N[C@H](CO)[C@@H](O)[C@H]2O)cc1
Result: 1.5

Task: How about this compound: OC[C@H]1N[C@@H](c2ccc(F)cc2)[C@H](O)[C@@H]1O
Result: 0.088

Task: How about this compound: OC[C@H]1N[C@@H](c2ccccc2)[C@H](O)[C@@H]1O
Result: 0.1

Task: How about this compound: OC[C@H]1N[C@@H](c2ccc(Cl)cc2)[C@H](O)[C@@H]1O
Result: 0.095

Task: How about this compound: Nc1cccc([C@@H]2N[C@H](CO)[C@@H](O)[C@H]2O)c1
Result: 0.47
